# System: RARa:RXR (NR concentration 270 nM, RXRa partner concentration 90 nM)
# Method description: PBM binding z-score (relative to random genomic background probes); higher = stronger binding; sequences stand for … in GC…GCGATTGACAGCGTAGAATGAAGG
Rule: YES for PBM binding z-score not less than 2, NO for anything less.

Ask: Item `CCGACTGGGGTAAGGTTACCATAACGCACAGCCA` with PBM binding z-score of 2 or above?
Result: NO

Ask: Item `ATATGTAGGTTATCGCGTCATTCAGTTTGCGCAT` with PBM binding z-score of 2 or above?
Result: NO

Ask: Item `CCTAGCAGGCCAGGGTCACTCCAGCATTTCGCTT` with PBM binding z-score of 2 or above?
Result: YES

Ask: Item `CCGACTGGGGCAACGTTACCATAACGCACAGCCA` with PBM binding z-score of 2 or above?
Result: NO

Ask: Item `CCTGCTAGGTCAATGGTCAGCTACAGCAGCTCGC` with PBM binding z-score of 2 or above?
Result: NO

Ask: Item `ATCTCTAGGTAACAAGTTCAGTGCAAGAGAGGAC` with PBM binding z-score of 2 or above?
Result: NO

----------
So I've got a bunch of sequences here, and I need their PBM binding z-score values.
# Tested on: RARa homodimer (NR concentration 270 nM)
# Method description: PBM binding z-score (relative to random genomic background probes); higher = stronger binding; sequences stand for … in GC…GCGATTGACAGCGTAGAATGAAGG
I'd appreciate a reply containing only the number, no unit.

Ask: Record `CCTTACGGGTCTCTGACAGGTTATAGCATTTGGA` : what is its PBM binding z-score with RARa homodimer (NR concentration 270 nM)?
Result: 0.262

Ask: Record `CCTATTAGTTGACCATAAGGGCACCCGAAGCTCG` : what is its PBM binding z-score with RARa homodimer (NR concentration 270 nM)?
Result: 1.56

Ask: Record `TTACCAAGGTGAAAAGTCGTTGATGCACGCCTTG` : what is its PBM binding z-score with RARa homodimer (NR concentration 270 nM)?
Result: -0.563

Ask: Record `CCTTACGGGTCACTGACAGGCTATAGCATTTGGA` : what is its PBM binding z-score with RARa homodimer (NR concentration 270 nM)?
Result: 0.758

Ask: Record `AGAATGAGGTTACGATCAGGGAAACAGAATACAT` : what is its PBM binding z-score with RARa homodimer (NR concentration 270 nM)?
Result: 0.462

Ask: Record `CCTACTGGGCCATTCAGGGGTCATTGATCATATG` : what is its PBM binding z-score with RARa homodimer (NR concentration 270 nM)?
Result: 0.603

Ask: Record `GCTTGTAGATCAAGGTTAAGAGAGACTAAGCTAA` : what is its PBM binding z-score with RARa homodimer (NR concentration 270 nM)?
Result: -0.213

Ask: Record `ACTTACGGGTCAACGAGGTTATAGCGCGCGTATA` : what is its PBM binding z-score with RARa homodimer (NR concentration 270 nM)?
Result: 0.581

Ask: Record `TCATATAGGTACAGGTGAAAGTCGAACGATATGA` : what is its PBM binding z-score with RARa homodimer (NR concentration 270 nM)?
Result: 0.84

Ask: Record `CCAAACAGGTGAAAGGTAACTCAGTCTGGTACGC` : what is its PBM binding z-score with RARa homodimer (NR concentration 270 nM)?
Result: 1.21

Ask: Record `ATTCAAAGTTCACTAGGTAACGTAAGATTCAGCT` : what is its PBM binding z-score with RARa homodimer (NR concentration 270 nM)?
Result: 2.06

Ask: Record `ATTGAAAGGTCGTGAGGTGAGTATACAGAAAGGC` : what is its PBM binding z-score with RARa homodimer (NR concentration 270 nM)?
Result: 1.15

----------
# Tested on: PPARg:RXRa (NR concentration 180 nM, RXRa partner concentration 90 nM)
# Method description: PBM binding z-score (relative to random genomic background probes); higher = stronger binding; sequences stand for … in GC…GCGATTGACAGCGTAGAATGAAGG
So I've got a bunch of sequences here, and I need their PBM binding z-score values.

Ask: Could you share which PBM binding z-score value was measured for `CTAACTAGGTCAAAGGTCAAAGTCGAGCCAACCA` ?
Result: 14

Ask: Could you share which PBM binding z-score value was measured for `GCTTGTAGATCAAGGTTAAGTAAGACTAAGCTAA` ?
Result: 1.15

Ask: Could you share which PBM binding z-score value was measured for `CGTCCAAGGTCAACGGTCAGTGAAGAGATGACGG` ?
Result: 6.01

Ask: Could you share which PBM binding z-score value was measured for `AATAGCAGGCCAAGTTTGGGTCACTCAAACAAAG` ?
Result: 0.314

Ask: Could you share which PBM binding z-score value was measured for `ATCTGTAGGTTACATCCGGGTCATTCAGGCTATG` ?
Result: 1.98

Ask: Could you share which PBM binding z-score value was measured for `CGAACTAGGTCAGAACAGAACAGTGAAGGATGAT` ?
Result: 5.43

Ask: Could you share which PBM binding z-score value was measured for `TCTTGTGGATCAATAGAGGTTAAGAAAGTGCGCT` ?
Result: -0.178

Ask: Could you share which PBM binding z-score value was measured for `TCGTATAGGTAAATGCTAGGTGAAAGTCCGATCT` ?
Result: 0.156

Ask: Could you share which PBM binding z-score value was measured for `AGTCAAAGTTCATCTACGTAACGTAAGATATGCT` ?
Result: 6.55

Ask: Could you share which PBM binding z-score value was measured for `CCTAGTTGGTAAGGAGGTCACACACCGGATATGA` ?
Result: 3.16

Ask: Could you share which PBM binding z-score value was measured for `ATCTCAAGGTAAGACTCAGTTCAGTGAAGAACGC` ?
Result: 0.033

Ask: Could you share which PBM binding z-score value was measured for `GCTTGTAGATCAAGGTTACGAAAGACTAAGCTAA` ?
Result: 0.804

Ask: Could you share which PBM binding z-score value was measured for `AGAACGAGGGCAATGAGTTGATAGTACGGGTGGC` ?
Result: 1.5

Ask: Could you share which PBM binding z-score value was measured for `TCTTGTAGATCAATAGAGGATAAGAAAGTGCGCT` ?
Result: 0.389

Ask: Could you share which PBM binding z-score value was measured for `TATACCGGGTCAAAGGCCAGAGTACGAATGTCGA` ?
Result: 8.61

Ask: Could you share which PBM binding z-score value was measured for `GCTTACGGGTCAAAGCTTATAGCATGAATAGAAT` ?
Result: 4.76

Ask: Could you share which PBM binding z-score value was measured for `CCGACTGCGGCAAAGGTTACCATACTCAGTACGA` ?
Result: 2.8

Ask: Could you share which PBM binding z-score value was measured for `CCTAGCAGGCCAATCTGGGTCACTCTAGGCTTGA` ?
Result: 1.46

Ask: Could you share which PBM binding z-score value was measured for `ATATGTAGGTTACATCCGGGACATTCAGGCTATG` ?
Result: 5.41

Ask: Could you share which PBM binding z-score value was measured for `GATCCAGGGTCAAGGCCAGAGTACGCGTATTGAT` ?
Result: 5.86

Ask: Could you share which PBM binding z-score value was measured for `CAAACTCGGTCACAGAGGTCAAAGTCCGTGCGTA` ?
Result: 5.27

Ask: Could you share which PBM binding z-score value was measured for `CCTAGTTGGTCAAAGTCACACACGCTATAGGTAC` ?
Result: 1.35

Ask: Could you share which PBM binding z-score value was measured for `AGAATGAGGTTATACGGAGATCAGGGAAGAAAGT` ?
Result: 1.7

Ask: Could you share which PBM binding z-score value was measured for `TCATATAAGTAAACAGGTGAAAGTCCGTAAGTTA` ?
Result: 1.32

Ask: Could you share which PBM binding z-score value was measured for `ATCTCTAGTTAACAAGTTCAGTGAAAGAGAGGAC` ?
Result: 0.29

Ask: Could you share which PBM binding z-score value was measured for `CCGAGTAGGTTATGGGGCATGCAGGCAACGGTGA` ?
Result: 3.81

Ask: Could you share which PBM binding z-score value was measured for `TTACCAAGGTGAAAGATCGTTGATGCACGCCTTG` ?
Result: 2.97

Ask: Could you share which PBM binding z-score value was measured for `CGTCCAAGGTCATAGGAGGTCAGTTAAGACAGAT` ?
Result: 5.84

Ask: Could you share which PBM binding z-score value was measured for `ATACCAAGGTGATCGTGAGGTCGTTTATACTAAC` ?
Result: 0.492

Ask: Could you share which PBM binding z-score value was measured for `TTATATAGGTAAAAGGTGAAAGTCGGTGTGGTAA` ?
Result: 10.6

Ask: Could you share which PBM binding z-score value was measured for `CCTTACGGGTCACAAGGTTATAGCACGACGAGCG` ?
Result: 5.45

Ask: Could you share which PBM binding z-score value was measured for `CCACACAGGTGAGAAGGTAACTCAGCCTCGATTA` ?
Result: 0.76

Ask: Could you share which PBM binding z-score value was measured for `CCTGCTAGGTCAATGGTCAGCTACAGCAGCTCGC` ?
Result: 4.03

Ask: Could you share which PBM binding z-score value was measured for `CGAACCAGGTCAAGGACAGTGAATCTCCGCACGC` ?
Result: 4.96

Ask: Could you share which PBM binding z-score value was measured for `CCTTGTTGGTCAAGGTCACACACGCTATAGGTAC` ?
Result: 3.05

Ask: Could you share which PBM binding z-score value was measured for `AGAACGAGGGCAATGAGTTGACAGCACGGGTGGC` ?
Result: 1.38

Ask: Could you share which PBM binding z-score value was measured for `ACAGGCAGGTGATGAAGGTAACTCAGGCTATCAT` ?
Result: 0.575

Ask: Could you share which PBM binding z-score value was measured for `ACTATTAGTCGAGACGAGGGCAACCGATAGGTTG` ?
Result: 0.668

Ask: Could you share which PBM binding z-score value was measured for `ATCGAAAGGTCGAGGTGAGTAGAGAGAAAGGGAA` ?
Result: 3.29

Ask: Could you share which PBM binding z-score value was measured for `CAAACTAGGTCAAGAGGGCAAAGTCCGCTTCCCG` ?
Result: 8.68

Ask: Could you share which PBM binding z-score value was measured for `GGAACGAGGGCCAAGTTGATAGCATCTGTCGACG` ?
Result: 0.734

Ask: Could you share which PBM binding z-score value was measured for `AGAATGAGGTAAAGATCAGGGAAACAGAATACAT` ?
Result: 2

Ask: Could you share which PBM binding z-score value was measured for `TCTTGTGGATCAAGCAGGTTAAGAAAGCCTGAGT` ?
Result: -0.54

Ask: Could you share which PBM binding z-score value was measured for `ATATGTAGGTTGGCTGGGGTCATTCAGACTAGGC` ?
Result: 2.66

Ask: Could you share which PBM binding z-score value was measured for `GGAACGAGGGCACGTTGATAGCAGAGTTTGATGG` ?
Result: 1.7

Ask: Could you share which PBM binding z-score value was measured for `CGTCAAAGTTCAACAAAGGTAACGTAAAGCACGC` ?
Result: 5.08

Ask: Could you share which PBM binding z-score value was measured for `GCTAGTTGGTCAGTAAAGGGTCACACACCGGTCG` ?
Result: 1.72

Ask: Could you share which PBM binding z-score value was measured for `AATACAGGGTCACTAGGCCAGAGAAGGTACGAAT` ?
Result: 7.78

Ask: Could you share which PBM binding z-score value was measured for `GCGACTGGGGCATCAGCAGGTTAACATAACTTAA` ?
Result: 1.18

Ask: Could you share which PBM binding z-score value was measured for `CCTAGCAGGCCAATCTGGGTGACTCAAGGCTTGA` ?
Result: 0.507

Ask: Could you share which PBM binding z-score value was measured for `CATCCAAGGTCAGCAGGTCAGTGAAAGCGACGTG` ?
Result: 4.86
